experiment notes: qHTS RealTime-Glo MT Cell Viability Assay in HEK293 cells - 32 hour (AID 1224868); also: potency is read from the fitted curve at half-maximal effect; nearly all actives have a fitted effect of over 50% in size
measurement parameters: RealTime-Glo luminescence; series mostly up to 76.8 µM
Results filed as inconclusive are left out. The source made the active and inactive calls. Calls follow the shape of the dose curve; as a rule, active = well fitted cell-killing curve with a large enough effect in the repeat runs; inconclusive = weak or mixed curves, or effect the other way; inactive = flat fitted curve, though single readings scatter.
Entries and their measured Potency follow.

Recorded Potency, per entry:
INSERT INTO results (smiles_notation, outcome_measure, result) VALUES
  ('Oc1ccc(C2(c3ccc(O)cc3)c3ccccc3-c3ccccc32)cc1', 'Potency', '43.6 µM (active)'),
  ('C[C@@H]1CC[C@@]2(OC1)O[C@H]1[C@@H](O)[C@H]3[C@@H]4CC[C@H]5C[C@@H](O[C@@H]6O[C@H](CO)[C@H](O[C@@H]7O[C@H](CO)[C@@H](O)[C@H](O[C@@H]8OC[C@@H](O)[C@H](O)[C@H]8O)[C@H]7O[C@@H]7O[C@H](CO)[C@@H](O)[C@H](O[C@@H]8O[C@H](CO)[C@@H](O)[C@H](O)[C@H]8O)[C@H]7O)[C@H](O)[C@H]6O)[C@H](O)C[C@]5(C)[C@H]4CC[C@]3(C)[C@H]1[C@@H]2C', 'Potency', '11.6 µM (active)');

Pending compound:
State the recorded Potency for this entry: Clc1ccc(CO/N=C(\Cn2ccnc2)c2ccc(Cl)cc2Cl)c(Cl)c1
21.3 µM (active)

* * *

assayed system: Peroxisome proliferator-activated receptor delta (Homo sapiens) (UniProt Q03181)
Sequence (Q03181 whole entry, looked up): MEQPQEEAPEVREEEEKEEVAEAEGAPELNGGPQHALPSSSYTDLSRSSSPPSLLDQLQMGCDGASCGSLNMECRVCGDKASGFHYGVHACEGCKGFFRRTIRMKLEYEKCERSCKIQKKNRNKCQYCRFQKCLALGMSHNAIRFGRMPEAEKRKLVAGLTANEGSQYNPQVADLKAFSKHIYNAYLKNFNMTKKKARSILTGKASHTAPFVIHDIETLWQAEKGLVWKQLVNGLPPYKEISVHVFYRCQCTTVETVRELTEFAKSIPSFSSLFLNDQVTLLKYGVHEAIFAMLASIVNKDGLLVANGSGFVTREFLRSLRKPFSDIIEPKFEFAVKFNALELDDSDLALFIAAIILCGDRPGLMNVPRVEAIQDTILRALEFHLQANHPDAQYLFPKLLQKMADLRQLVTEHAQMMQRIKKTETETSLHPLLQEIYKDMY
experiment notes: qHTS assay to identify small molecule antagonists of the peroxisome proliferator-activated receptor delta (PPARd) signaling pathway (AID 743215);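 also: cells stimulated with agonist L165041 at 300 nM final during compound exposure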; also: potency is read from the fitted curve at half-maximal effect
measurement parameters: HEK293H PPARd-UAS-bla, beta-lactamase FRET ratio, antagonist, 17 h; series mostly up to 62 µM
Inconclusive results are not listed. The source made the active and inactive calls. Calls follow the shape of the dose curve; as a rule, active = well fitted inhibition curve with a large enough effect in the signal ratio in the repeat runs (not every such curve was filed as active); inconclusive = weak or mixed curves, or effect the other way; inactive = no such curve, though single readings can be large or run the other way; the % refers to the signal ratio.
outcome measure: Potency

INSERT INTO results (compound, result) VALUES
  ('CCCCCCCCCCCCCCC(Br)C(=O)O (configuration not stated)', 'inactive'),
  ('ClCc1ccc(Cl)cc1Cl', 'inactive'),
  ('O=C1NCN(c2ccccc2)C12CCN(CC1COc3ccccc3O1)CC2 (configuration not stated)', 'inactive'),
  ('CCCCCCCCCCCCCCCCCCn1cc[n+](C)c1', '19.4 µM (active)'),
  ('CCC(C)(C)C(=O)OC1=C(c2ccc(Cl)cc2Cl)C(=O)OC12CCCCC2', 'inactive'),
  ('ClC1=C(Cl)C2(Cl)C3C(Cl)C=CC3C1(Cl)C2(Cl)Cl (configuration not stated)', 'inactive'),
  ('c1ccc(Nc2ccc3ccccc3c2)cc1', 'inactive'),
  ('CCOc1cc(C(C)(C)C)ccc1C1COC(c2c(F)cccc2F)=N1 (configuration not stated)', '29.7 µM (active)'),
  ('Oc1ccc(C2(c3ccc(O)cc3)CCCCC2)cc1', '46.4 µM (active)'),
  ('Cn1cc(C2=C(c3cn(C4CCN(Cc5ccccn5)CC4)c4ccccc34)C(=O)NC2=O)c2ccccc21', 'inactive');

// Potency lookup, key: CC(=O)Nc1ccc2c(c1)Cc1ccccc1-2
inactive

Try this compound next: Clc1ccc(C(c2ccc(Cl)cc2)C(Cl)(Cl)Cl)cc1
inactive

* * *

experiment notes: A CellTox Green Cytotoxicity Assay to monitor cytotoxicity in HepG2 cells - 16 hour (AID 1224876); also: nearly all actives have a fitted effect of over 45% in size
measurement parameters: CellTox Green fluorescence; series mostly up to 76.8 µM
Inconclusive results are not listed. Calls of active or inactive are those of the source. Calls follow the shape of the dose curve; as a rule, active = well fitted activation curve with a large enough effect in the repeat runs; inconclusive = weak or mixed curves; inactive = flat fitted curve, though single readings scatter.
Can you answer with just one of these options? active, inactive

INSERT INTO results (molecule, answer_label) VALUES
  ('Cc1cc(C)c(C2=C(OC(=O)CC(C)(C)C)C3(CCCC3)OC2=O)c(C)c1', 'inactive'),
  ('CC(C)C1CCC(Cc2ccc(Cl)cc2)C1(O)Cn1cncn1 (stereo not drawn)', 'active'),
  ('CCC(C)c1cc(C(C)(C)C)cc(-n2nc3ccccc3n2)c1O (stereo not drawn)', 'inactive'),
  ('CC(=O)[O-].CC(=O)[O-].[Hg+2]', 'active'),
  ('CC1(C)CN=C(NN=C(/C=C/c2ccc(C(F)(F)F)cc2)/C=C/c2ccc(C(F)(F)F)cc2)NC1', 'active'),
  ('O=[N+]([O-])c1cc(Cl)ccc1Cl', 'inactive'),
  ('CC(c1ccc(O)cc1)c1ccc(O)cc1', 'inactive'),
  ('COc1ccc(OC)c(CC(C)N)c1 (stereo not drawn)', 'inactive'),
  ('CCC[CH2][Sn]([CH2]CCC)([CH2]CCC)[O]C(=O)c1ccccc1', 'active'),
  ('BrC(Br)Br', 'inactive');

Could you please tell me the result logged for N#CNC#N in this assay?
inactive

Would you kindly repeat that for CC(C)OS(C)(=O)=O ?
inactive

Request: CC(C)Oc1cccc(NC(=O)c2ccccc2C(F)(F)F)c1
active

* * *

experiment notes: qHTS assay to identify small molecule antagonists of the androgen receptor (AR) signaling pathway - cell viability counter screen (AID 743033; also: nearly all actives have a fitted effect of over 45% in size)
measurement parameters: AR-bla HEK293 viability, CellTiter-Glo luminescence, 16 h; series mostly up to 58.5 µM
Records with an inconclusive call do not appear. Calls of active or inactive are those of the source. Calls come from the whole dose curve; as a rule, active = well fitted cell-killing curve with a large enough effect in the repeat runs; inconclusive = weak or mixed curves; inactive = no such curve, though single readings can be large or run the other way.
Pick one and only one: T = active, F = inactive

The following compounds have reported results that may help.
INSERT INTO measurements (compound, answer_label) VALUES
  ('O=C(O)c1cc[c]([Hg][Cl])cc1', 'T'),
  ('CC(C)Oc1cccc(NC(=O)c2ccccc2C(F)(F)F)c1', 'F'),
  ('CCC(C)(C)C(=O)OC1=C(c2ccc(Cl)cc2Cl)C(=O)OC12CCCCC2', 'F'),
  ('CCCN(CCC)CCc1c[nH]c2ccccc12', 'F'),
  ('N#CCCC(Br)(C#N)CBr (stereo not given)', 'T'),
  ('CCCCCCCCCCCCCCCC[n+]1ccccc1', 'T'),
  ('O=[N+]([O-])c1ccc(Oc2ccc(C(F)(F)F)cc2[N+](=O)[O-])cc1', 'F'),
  ('C1CCC2CCCCC2C1 (stereo not given)', 'F'),
  ('CC(C)CCCCCOC(=O)c1ccccc1C(=O)OCCCCCC(C)C', 'F'),
  ('CC(C)OC(=S)S', 'T');

So what was the verdict on O=c1[nH]c2ccccc2n1CCCN1CCC(n2c(=O)[nH]c3cc(Cl)ccc32)CC1 in this test?
F

Quick one: Clc1ccc(CCC(Cn2ccnc2)Sc2c(Cl)cccc2Cl)cc1 (stereo not given)
F

What do we get for COP(=O)(OC)SCn1c(=O)oc2cc(Cl)cnc21 ?
F

And the next one, C[C@@H]1CC[C@@]2(OC1)O[C@H]1[C@@H](O)[C@H]3[C@@H]4CC[C@H]5C[C@@H](O[C@@H]6O[C@H](CO)[C@H](O[C@@H]7O[C@H](CO)[C@@H](O)[C@H](O[C@@H]8OC[C@@H](O)[C@H](O)[C@H]8O)[C@H]7O[C@@H]7O[C@H](CO)[C@@H](O)[C@H](O[C@@H]8O[C@H](CO)[C@@H](O)[C@H](O)[C@H]8O)[C@H]7O)[C@H](O)[C@H]6O)[C@H](O)C[C@]5(C)[C@H]4CC[C@]3(C)[C@H]1[C@@H]2C ?
T

Would you kindly repeat that for CC(=O)C(Cl)(Cl)Cl ?
T

Queued: Oc1ccc(C2(c3ccc(O)cc3)c3ccccc3-c3ccccc32)cc1
T

* * *

experiment notes: Caspase-3/7 induction in HepG2 cells by small molecules, qHTS assay (AID 1346978); also: nearly all actives have a fitted effect of over 15% in size
measurement parameters: HepG2 caspase-3/7 activation, Caspase-Glo luminescence, 17 h; series mostly up to 92.4 µM
Inconclusive results are not listed. Calls of active or inactive are those of the source. The call rests on the fitted dose curve; in most records, active means well fitted activation curve with a large enough effect in the repeat runs; inconclusive means weak or mixed curves; inactive means flat fitted curve, though single readings scatter.
Result category, one only: active, inactive

INSERT INTO measurements (compound, answer_label) VALUES
  ('CCS(=O)(=O)c1cccnc1S(=O)(=O)NC(=O)Nc1nc(OC)cc(OC)n1', 'inactive');

Tell me the assay call for Cc1cc(C)cc(OP(=O)(Oc2cc(C)cc(C)c2)Oc2cc(C)cc(C)c2)c1 please.
inactive

Would you mind doing CCCCN(CCCC)C(=S)[S-].CCCCN(CCCC)C(=S)[S-].[Zn+2] as well?
inactive

Please give the result for CC(=[OH+])/C=C(/C)[O-].CC(=[OH+])/C=C(\C)[O-].CC(=[OH+])/C=C(\C)[O-].[Al] too.
inactive

Next up: CC(C)(COCC1CO1)COCC1CO1 (stereo unspecified)
inactive

What do we get for CC(=O)Nc1ccc2c(c1)Cc1ccccc1-2 ?
inactive

* * *

assayed system: Estrogen receptor (Homo sapiens)
experiment notes: qHTS assay to identify small molecule agonists of the estrogen receptor alpha (ER-alpha) signaling pathway (AID 743075);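 also: HEK293 GripTite cells with ER-alpha and UAS-driven beta-lactamase reporter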; also: potency is read from the fitted curve at half-maximal effect
measurement parameters: HEK293 ER-alpha-UAS-bla, beta-lactamase FRET ratio, 18 h; series mostly up to 70.1 µM
The source made the active and inactive calls. The call rests on the fitted dose curve.
outcome measure: Potency

INSERT INTO measurements (compound, outcome_measure, result) VALUES
  ('CCCCN(CCCC)C(=S)[S-].CCCCN(CCCC)C(=S)[S-].[Zn+2]', 'Potency', '30.1 µM [inconclusive] (active)'),
  ('COC12CC[C@@]3(C[C@@H]1C(C)(O)C(C)(C)C)[C@H]1Cc4ccc(O)c5c4[C@@]3(CCN1CC1CC1)[C@H]2O5 (stereo not given in full)', 'Potency', 'inactive'),
  ('CC(C)CCCCCCCOP(=O)(Oc1ccccc1)Oc1ccccc1', 'Potency', 'inactive'),
  ('Oc1c(Br)c(Br)c(Br)c(Br)c1Br', 'Potency', 'inactive');

What measured Potency goes with CCC(C)(C)C(=O)OC1=C(c2ccc(Cl)cc2Cl)C(=O)OC12CCCCC2 ?
inactive
